test: Stability of compound in human plasma assessed as half life at 20 uM incubated for 3 hrs by LC-MS (SIM) assay; format: ADME, cell-free
QUANTITY_MEASURED: half-life at 20 µM (min)
Lab book: enter the figure in min, no units written.

half-life at 20 µM recorded for this compound, CCN(CC)CCOC(=O)c1ccc(N)cc1 , is 2

----------
Overview of recorded half-life at 4 h, 10 µM for various molecules
assay: in vitro; conditions: CD1, mouse, liver microsomes

The examples below pair each entry with its known result.
O=C(O)c1cnn(-c2cccc(NS(=O)(=O)c3ccccc3)c2)c1C1CC1 ... 4 h
COc1cccc(S(=O)(=O)N(CC(=O)O)c2cccc(-n3ncc(C(=O)O)c3[C@H]3C[C@@H]3c3ccccc3)c2)c1 (relative stereo) ... 4 h

Next, consider the following molecule.
half-life at 4 h, 10 µM recorded for this molecule, O=C(O)CN(c1cccc(-n2ncc(C(=O)O)c2C2CC2)c1)S(=O)(=O)c1ccccc1 , is 4 h
